TARGET_ENTITY: Ionotropic glutamate receptor NMDA 1/2C (Homo sapiens, UniProt Q05586+Q14957)
Sequence (Q14957 whole entry, other chains not shown): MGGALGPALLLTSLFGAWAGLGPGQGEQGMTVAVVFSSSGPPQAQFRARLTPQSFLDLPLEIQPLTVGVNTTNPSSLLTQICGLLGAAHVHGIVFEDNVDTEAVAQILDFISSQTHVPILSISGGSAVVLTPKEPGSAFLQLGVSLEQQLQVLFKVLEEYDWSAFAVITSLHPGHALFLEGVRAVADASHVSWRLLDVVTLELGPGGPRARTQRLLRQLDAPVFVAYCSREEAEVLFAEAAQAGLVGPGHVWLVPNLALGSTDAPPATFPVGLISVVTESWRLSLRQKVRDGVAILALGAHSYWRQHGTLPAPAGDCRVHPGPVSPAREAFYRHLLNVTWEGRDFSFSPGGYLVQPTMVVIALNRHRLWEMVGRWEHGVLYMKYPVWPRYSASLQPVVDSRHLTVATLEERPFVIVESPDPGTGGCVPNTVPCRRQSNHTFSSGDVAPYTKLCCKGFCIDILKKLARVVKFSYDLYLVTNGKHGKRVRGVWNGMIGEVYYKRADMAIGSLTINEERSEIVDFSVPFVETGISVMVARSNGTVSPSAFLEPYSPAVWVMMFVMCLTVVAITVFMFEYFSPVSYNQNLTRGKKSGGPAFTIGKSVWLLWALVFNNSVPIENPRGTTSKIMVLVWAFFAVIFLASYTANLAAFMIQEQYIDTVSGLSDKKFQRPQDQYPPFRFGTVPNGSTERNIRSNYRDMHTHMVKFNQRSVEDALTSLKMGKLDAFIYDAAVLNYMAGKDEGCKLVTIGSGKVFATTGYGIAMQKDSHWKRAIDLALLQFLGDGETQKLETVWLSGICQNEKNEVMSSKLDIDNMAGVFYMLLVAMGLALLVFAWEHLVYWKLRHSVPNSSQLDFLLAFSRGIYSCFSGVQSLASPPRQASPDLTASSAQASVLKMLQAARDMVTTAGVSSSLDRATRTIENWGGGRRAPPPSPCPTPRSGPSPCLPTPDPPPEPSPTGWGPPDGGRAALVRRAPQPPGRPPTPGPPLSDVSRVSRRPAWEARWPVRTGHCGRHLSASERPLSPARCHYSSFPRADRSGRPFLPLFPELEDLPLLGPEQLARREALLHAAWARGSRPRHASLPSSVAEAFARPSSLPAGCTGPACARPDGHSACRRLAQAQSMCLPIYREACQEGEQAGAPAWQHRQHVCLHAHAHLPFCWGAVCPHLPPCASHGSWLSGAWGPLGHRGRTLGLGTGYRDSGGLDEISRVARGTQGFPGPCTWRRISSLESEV
METHOD: Positive allosteric modulation of recombinant human GluN1/GluN2C receptor stably expressed in HEK293 cells assessed as increase in glycine/L-glutamate-induced channel current at -70 mV holding potential by whole cell patch clamp method
RESULT_TYPE: EC50 (µM)
Please respond with the number in µM and leave the unit unwritten.

[ask] Please look up its EC50: C[C@H](CC[C@](C)(O)C(F)(F)F)[C@H]1CC[C@H]2[C@@H]3CC=C4C[C@@](C)(O)CC[C@]4(C)[C@H]3CC[C@]12C
[reply] 0.15
